Molecular target: 3-hydroxy-3-methylglutaryl-coenzyme A reductase (Homo sapiens)
Experiment: Inhibition of human HMGR catalytic domain at 200 uM using HMG-CoA as substrate measured every 20 secs for 10 mins relative to control
quantity_name: inhibition (%)

compound="CC[C@H](C)C(=O)O[C@H]1C[C@@H](C)C=C2C=C[C@H](C)[C@H](CC[C@@H]3C[C@@H](O)CC(=O)O3)[C@H]21 [LOVASTATIN]" quantity_name=inhibition quantitative_readout=42

I. CC[C@H](C)C(=O)O[C@H]1C[C@@H](C)[C@H](OC(C)=O)C2=C[C@@H](OC(C)=O)[C@H](C)[C@H](CC[C@@H]3CC=CC(=O)O3)[C@H]21
II. CC[C@H](C)C(=O)O[C@H]1C[C@@H](C)[C@H](O)C2=C[C@@H](O)[C@H](C)[C@H](CC[C@@H]3CC=CC(=O)O3)[C@H]21
Sorting by inhibition in descending order, would I or II appear first? The response must carry the label of the picked entry.
II
(II: 50%, I: 20.4%)

----------
IC50: recorded values
Test: Cytotoxicity against African green monkey Vero cells
Type: toxicity, cell-based
Conditions: African green monkey (Chlorocebus sabaeus)
# number only, unit µM dropped from output

molecule="Cc1c2ccncc2c(C)c2c1[nH]c1ccccc12 [ELLIPTECINE]" unit_string=µM quantitative_readout=1

Reported IC50 for CC[C@H](C)C(=O)O[C@H]1C[C@@H](C)C=C2C=C[C@H](C)[C@H](CC[C@@H]3CC=CC(=O)O3)[C@H]21 was 8.1

// sample CC[C@H](C)C(=O)O[C@H]1C[C@@H](C)C[C@@H]2C=C[C@H](C)[C@H](CC[C@@H]3CC=CC(=O)O3)[C@@H]12 , its IC50 was 14.5

get_value(item= CC[C@H](C)C(=O)O[C@H]1C[C@@H](C)C=C2C=C[C@H](C)[C@H](CC[C@@H]3C[C@@H](O)CC(=O)O3)[C@H]21 [LOVASTATIN] , readout=IC50) returns 2.2

Briefly, IC50 measured for CC[C@H](C)C(=O)O[C@H]1C[C@@H](C)[C@H](OC(C)=O)C2=C[C@@H](OC(C)=O)[C@H](C)[C@H](CC[C@@H]3CC=CC(=O)O3)[C@H]21 : 8.4

Record summary for CC[C@H](C)C(=O)O[C@H]1C[C@@H](C)[C@H](O)C2=C[C@@H](O)[C@H](C)[C@H](CC[C@@H]3CC=CC(=O)O3)[C@H]21 : reported IC50 = 40
